test system: SK-MEL-28 melanoma; experiment: NCI tumour cell line growth inhibition, 48 h
READOUT: TGI

For orientation, consider the following solved cases.
INSERT INTO assay_data (molecule, assayed_target, measured) VALUES
  ('CSc1nc(Nc2cccc(C(F)(F)F)c2)c2c(N)nn(C)c2n1', 'SK-MEL-28 melanoma', '> 100 µM'),
  ('CC(=O)Oc1ccc2c(C)cc(=O)oc2c1OC(C)=O', 'SK-MEL-28 melanoma', '> 100 µM'),
  ('CCOC(=O)CC[C@H](NC(=O)[C@H](N)Cc1ccc(N(CCCl)CCCl)cc1)C(=O)OCC', 'SK-MEL-28 melanoma', '> 54.3 µM'),
  ('CCOc1ccc(NC(=O)C(=O)CC(=O)c2c(C)n([O-])c3ccccc3[n+]2=O)cc1', 'SK-MEL-28 melanoma', '> 100 µM'),
  ('CC(=O)c1c(C)n([O-])c2cc(Cl)c(Cl)cc2[n+]1=O', 'SK-MEL-28 melanoma', '> 100 µM'),
  ('CC1CN(C(=O)CN2CCC(CCCCN(C)C)CC2)c2ccccc2NC1=O (stereo unspecified)', 'SK-MEL-28 melanoma', '> 100 µM');

Reported TGI, molecule COc1cc(C2c3cc4c(cc3OC3(OC)COC(=O)C23)OCO4)cc(OC)c1OC(C)=O (stereo unspecified) : ____ > 100 µM

====

tested on: MDA-MB-435; assay: NCI tumour cell line growth inhibition, 48 h
TGI: recorded values

# annotated cases, reported TGI shown
INSERT INTO measurements (compound, assayed_target, readout, measured) VALUES
  ('Cn1cc(C2=C(c3cn(CCCCO)c4ccccc34)C(=O)NC2=O)c2ccccc21', 'MDA-MB-435', 'TGI', '> 25 µM'),
  ('O=C(Oc1ccccn1)c1cc2cc(CCl)ccc2oc1=O', 'MDA-MB-435', 'TGI', '> 100 µM'),
  ('CC(C)(C)OC(=O)[C@H]1CCC(=S)N1Cc1ccccc1', 'MDA-MB-435', 'TGI', '> 100 µM'),
  ('Cc1nn(-c2ccc(Cl)cc2)c2nc3c(nc12)C(=O)c1ccccc1-3', 'MDA-MB-435', 'TGI', '> 100 µM'),
  ('CN(C)CCCC12CCCCC1=Nc1ccccc12 (stereo not given)', 'MDA-MB-435', 'TGI', '> 100 µM'),
  ('O=C(CSc1nc2ccccc2nc1-c1ccccc1)Nc1ccc(F)cc1', 'MDA-MB-435', 'TGI', '> 100 µM'),
  ('Cc1c2c(C#N)nccc2c(C)c2c1c1ccccc1n2Cc1ccccc1', 'MDA-MB-435', 'TGI', '> 100 µM'),
  ('COc1cc(-n2cc(-c3ccc(F)cc3)[nH]c2=O)cc(OC)c1OC', 'MDA-MB-435', 'TGI', '> 100 µM');

Bench note: what TGI did O=C1Nc2ccccc2/C1=N\[O-].O=C1Nc2ccccc2/C1=N\[O-].[Cu+2] show? > 100 µM

Which TGI reading was recorded for the compound CN=C(N=Nc1c(O)[nH]c2ccccc12)SCC(=O)c1ccc(Br)cc1 ? > 42.3 µM

# query: TGI of entry CCOC1OC(=O)c2cc3ccc4c(c3c(-c3ccc5c(c3)OCO5)c21)OCO4 (stereo not given) > 28 µM

Entry O=C(O)[C@@H]1CCS(=O)(=O)N1 : reported TGI = ? > 100 µM

I have this compound here, O=c1c(/C=C/c2c(O)ccc3ccccc23)nnc2sc(-c3cccc(Br)c3)nn12 , and I need its recorded TGI. > 100 µM

Entry COc1ccc(/C=C2/N=C(c3ccccc3)N(c3c(C)n(C)n(-c4ccccc4)c3=O)C2=O)cc1OC has what TGI? > 100 µM

Form field: reported TGI of CCCC(=O)Nc1cc2c3c(c1)CCCN3CCC2 > 10 µM

Param item = Cc1ccc(NC(=O)CC2CC2)cc1-c1ccc(C(=O)NCC2CC2)cc1 ; retrieve measured TGI. > 25 µM

Please give the measured TGI for this compound: COC(=O)C(Cc1c[nH]c2ccccc12)NP(=O)(O)OCC1OC(n2cc(I)c(=O)[nH]c2=O)CC1O (stereo not given) > 100 µM

Recorded TGI of CCOC(=O)c1nnc2c(C(=O)OCC)c3ccccc3n2c1N , please. > 100 µM

So what does the record say about TGI for CC(=O)Oc1ccc2c(C)cc(=O)oc2c1OC(C)=O ? > 100 µM

What does the record list as TGI for Oc1cccnc1[Se] ? > 100 µM
